molecular target: Recombinant Csk (Homo sapiens, UniProt P41240); experiment: Csk tyrosine kinase activity, poly E4Y / 32P-ATP phosphorylation assay; assay type: biochemical; details: Table 3, Formula II compounds; NI = no inhibition at 100 μg/mL
Sequence (P41240 whole entry, species assumed): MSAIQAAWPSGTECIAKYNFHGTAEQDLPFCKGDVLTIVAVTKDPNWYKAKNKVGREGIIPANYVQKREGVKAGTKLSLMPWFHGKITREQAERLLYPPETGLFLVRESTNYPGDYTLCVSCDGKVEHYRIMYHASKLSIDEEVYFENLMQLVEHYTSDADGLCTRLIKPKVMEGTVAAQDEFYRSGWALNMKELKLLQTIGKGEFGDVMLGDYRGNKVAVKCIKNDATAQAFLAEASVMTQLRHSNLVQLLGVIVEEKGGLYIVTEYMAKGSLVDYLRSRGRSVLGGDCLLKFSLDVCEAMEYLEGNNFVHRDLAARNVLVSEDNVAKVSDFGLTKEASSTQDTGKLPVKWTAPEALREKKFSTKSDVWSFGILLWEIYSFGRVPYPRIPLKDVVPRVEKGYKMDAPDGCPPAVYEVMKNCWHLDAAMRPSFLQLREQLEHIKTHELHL
MEASURE_NAME: IC50 (µM)
Report the value in µM with no unit label.

Recorded IC50, per entry:
1) COc1ccc(Oc2ccc(NS(=O)(=O)Cc3ccccc3)c(NS(=O)(=O)Cc3ccccc3)c2)cc1 [Compound 12g] = 102
2) Cc1ccc(S(=O)(=O)Nc2ccc(Oc3ccc4ccccc4c3)cc2NS(=O)(=O)c2ccc(C)cc2)cc1 [Compound 12u] = 104

For reference, reported IC50 for COc1ccc(Oc2ccc(NS(=O)(=O)c3ccc(F)cc3)c(NS(=O)(=O)c3ccc(F)cc3)c2)cc1 [Compound 12d] stands at 73

For reference, reported IC50 for COc1ccc(Oc2ccc(NS(=O)(=O)c3ccc(OC)cc3)c(NS(=O)(=O)c3ccc(OC)cc3)c2)cc1 [Compound 12k] stands at 88

For reference, reported IC50 for Cc1ccc(S(=O)(=O)Nc2ccc(OCc3ccccc3Cl)cc2NS(=O)(=O)c2ccc(C)cc2)cc1 [Compound 15d] stands at 59

For reference, reported IC50 for COc1ccc(Oc2ccc(NS(=O)(=O)c3ccc(Cl)cc3)c(NS(=O)(=O)c3ccc(Cl)cc3)c2)cc1 [Compound 12c] stands at 95

====

molecular target: Recombinant Csk (Homo sapiens, UniProt P41240); test: Csk tyrosine kinase activity, poly E4Y / 32P-ATP phosphorylation assay; format: biochemical; settings: Table 3, Formula II compounds; NI = no inhibition at 100 μg/mL
MEASURE_NAME: IC50

1. CCc1ccc(S(=O)(=O)Nc2ccc(Oc3ccc(OC)cc3)cc2NS(=O)(=O)c2ccc(CC)cc2)cc1 [Compound 12a] = > 176 µM

Recorded IC50 for Cc1ccc(S(=O)(=O)Nc2ccc(OCC3CCCCC3)cc2NS(=O)(=O)c2ccc(C)cc2)cc1 [Compound 15f] on Recombinant Csk (Homo sapiens, UniProt P41240) was > 189 µM

Recorded IC50 for COc1ccc(Oc2ccc(NS(=O)(=O)c3ccc(Oc4ccccc4)cc3)c(NS(=O)(=O)c3ccc(Oc4ccccc4)cc3)c2)cc1 [Compound 12e] on Recombinant Csk (Homo sapiens, UniProt P41240) was > 144 µM

Recorded IC50 for COc1ccc(COc2ccc(NS(=O)(=O)c3ccc(C)cc3)c(NS(=O)(=O)c3ccc(C)cc3)c2)cc1 [Compound 15e] on Recombinant Csk (Homo sapiens, UniProt P41240) was > 181 µM

Recorded IC50 for COc1ccc(Oc2ccc(NS(=O)(=O)c3ccc([N+](=O)[O-])cc3)c(NS(=O)(=O)c3ccc([N+](=O)[O-])cc3)c2)cc1 [Compound 12r] on Recombinant Csk (Homo sapiens, UniProt P41240) was > 167 µM

Recorded IC50 for COc1ccc(Oc2ccc(NS(=O)(=O)c3ccc(C(C)(C)C)cc3)c(NS(=O)(=O)c3ccc(C(C)(C)C)cc3)c2)cc1 [Compound 12o] on Recombinant Csk (Homo sapiens, UniProt P41240) was > 161 µM

Recorded IC50 for CCCCSc1ccc(NS(=O)(=O)c2ccc(C)cc2)c(NS(=O)(=O)c2ccc(C)cc2)c1 [Compound 12hh] on Recombinant Csk (Homo sapiens, UniProt P41240) was > 198 µM

Hello, the source for this data is patent US20060004197A1, in case you need it.
